test system: Plasmodium falciparum; experiment: Antiplasmodial activity against chloroquine-sensitive Plasmodium falciparum D10; type: functional, organism-based
pIC50: −log10 of the molar value.
Reported pIC50 is given for each of the following compounds.

molecule: N[C@@H]1C(=O)N(C2CCCCC2)[C@@H]1/C=C/c1ccccc1
pIC50: 4.73
//
molecule: [N-]=[N+]=N[C@@H]1C(=O)N(C2CCCCC2)[C@@H]1/C=C/c1ccccc1
pIC50: 5.63
//
molecule: [N-]=[N+]=N[C@@H]1C(=O)N(c2ccc(Cl)cc2)[C@@H]1/C=C/c1ccccc1
pIC50: 5.35
//
molecule: N[C@@H]1C(=O)N(c2ccccc2)[C@@H]1/C=C/c1ccccc1
pIC50: 4.53
//
molecule: Cc1ccc(N2C(=O)[C@@H](N)[C@H]2/C=C/c2ccccc2)cc1
pIC50: 4.22
//
molecule: [N-]=[N+]=N[C@@H]1C(=O)N(c2ccccc2)[C@@H]1/C=C/c1ccccc1
pIC50: 4.99
//
molecule: N[C@@H]1C(=O)N(c2ccc(Cl)cc2)[C@@H]1/C=C/c1ccccc1
pIC50: 4.42
//
molecule: [N-]=[N+]=N[C@@H]1C(=O)N(Cc2ccccc2)[C@@H]1/C=C/c1ccccc1
pIC50: 5.33
//
molecule: Cc1ccc(N2C(=O)[C@@H](N=[N+]=[N-])[C@H]2/C=C/c2ccccc2)cc1
pIC50: 5.23

The measured values listed here are drawn from ChEMBL document CHEMBL1806406.
